biological target: recombinant human MIF protein (Homo sapiens); construct: commercial recombinant human MIF (PeproTech), amine-coupled to CM7 chip; homotrimer; assay: surface plasmon resonance (Biacore T200)
Sequence (P14174 2-115): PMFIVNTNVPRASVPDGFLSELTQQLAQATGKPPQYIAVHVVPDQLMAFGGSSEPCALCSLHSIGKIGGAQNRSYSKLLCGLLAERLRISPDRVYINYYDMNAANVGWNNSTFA
Parameter: pKd
Numbers only, as −log10 of the molar value.

Given the entry `Cn1c2ccccc2c2cc(C3=NCCc4c3[nH]c3ccccc43)ccc21` , what pKd was observed with recombinant human MIF protein (Homo sapiens)? 6.14
